- Tested on: HL-60(TB)
- procedure summary: NCI 60 cell line panel screen (SRB)
- Type: cell-based, human
- details: HL-60(TB) (Leukemia); LC50: PG=−50
readout label: Log10LC50 (log10M)

[[record]]
compound = "CC1CCC2C(C)C(CC(CO)CC3OC4OC5(C)CCC6C(C)CCC(C3C)C46OO5)OC3OC4(C)CCC1C32OO4 (centres unmarked)"
readout_label = "Log10LC50"
qualifier_symbol = "="
value_reported = "−4.13"

[[record]]
compound = "CC1CCC2C(C)C(CC(O)(CC3OC4OC5(C)CCC6C(C)CCC(C3C)C46OO5)CS(=O)(=O)c3ccc(C(=O)O)cc3)OC3OC4(C)CCC1C32OO4 (centres unmarked) [Compound 10c]"
readout_label = "Log10LC50"
qualifier_symbol = ">"
value_reported = "−4.30"

[[record]]
compound = "CC1CCC2C(C)C(CC(O)(CO)CC3OC4OC5(C)CCC6C(C)CCC(C3C)C46OO5)OC3OC4(C)CCC1C32OO4 (centres unmarked)"
readout_label = "Log10LC50"
qualifier_symbol = ">"
value_reported = "−4.00"

[[record]]
compound = "CC(=O)O[C@H]1C(=O)[C@@]2(C)[C@H]([C@H](OC(=O)c3ccccc3)[C@]3(O)C[C@H](OC(=O)[C@H](O)[C@@H](NC(=O)c4ccccc4)c4ccccc4)C(C)=C1C3(C)C)[C@]1(OC(C)=O)CO[C@@H]1C[C@@H]2O [Paclitaxel, paclitaxel, reference compound]"
readout_label = "Log10LC50"
qualifier_symbol = ">"
value_reported = "−4.53"

[[record]]
compound = "C[C@@H]1CC[C@H]2[C@@H](C)C(CC(O)(CC3OC4O[C@]5(C)CC[C@H]6[C@H](C)CC[C@@H]([C@H]3C)C46OO5)c3ccc(C(=O)O)cc3)OC3O[C@]4(C)CCC1C32OO4 (some centres unmarked) [Compound 11b]"
readout_label = "Log10LC50"
qualifier_symbol = "="
value_reported = "−4.55"

